system: ZFP SBS#1290 (synthetic)
Sequence (chain, as listed by the source): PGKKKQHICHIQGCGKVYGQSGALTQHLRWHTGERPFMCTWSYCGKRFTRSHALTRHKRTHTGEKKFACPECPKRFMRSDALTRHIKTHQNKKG
assay.comment: EMSA
stated.conditions: tags: MBP fusion
quantity: Kd (nM)
Number in nM, nothing else.

Look up and state reported Kd for GTGGTGATA (dsDNA) DNA 1: GTGGTGATA DNA 2: TATCACCAC
24.1
